- Tested on: KRAS G12C mutant NCI-H358 cells
- test summary: Cell proliferation inhibition experiment, 3D spheroid, CellTiter-Glo, NCI-H358
- Format: cell-based, human
- assay context: Homo sapiens, NCI-H358, 120 h, NCI-H358 (KRAS G12C mutant) 3D spheroid, 5 days with compound, CellTiter-Glo; read-out: H358 IC50
measure name: IC50 (nM)

- C=CC(=O)N1CCN2C(=O)c3c(Oc4cccc5c4OC(C)(C)C5)nc(-c4c(O)cccc4F)c(Cl)c3OC[C@H]2C1: 37

1. C=CC(=O)N1CCN2C(=O)C3=C(OC[C@H]2C1)C(C)=C(c1c(O)cccc1F)CN3N1C[C@@H](O)CC1(C)C (single isomer, unassigned)
2. C=CC(=O)N1CCN2C(=O)c3c(N4CC(N(C)C)CC4(C)C)nc(-c4ccccc4F)c(Cl)c3OC[C@H]2C1 (single isomer, unassigned)
3. C=CC(=O)N1CCN2C(=O)c3c(N4CCOCC4)nc(-c4nc(N)cc(C)c4C(F)(F)F)c(Cl)c3OC[C@H]2C1
4. C=CC(=O)N1CCN2C(=O)c3c(N4CCS(=O)(=O)CC4)nc(-c4c(O)cccc4F)c(Cl)c3OC[C@H]2C1
5. C=CC(=O)N1CCN2C(=O)c3c(N4CC(C(=O)O)CC4(C)C)nc(-c4c(O)cccc4F)c(Cl)c3OC[C@H]2C1 (stereo partly drawn)
Q) Could you please order the items by IC50, going from the lowest number to the highest? Lab note: record answer as labels in requested order.
A) 3, 2, 1, 5, 4

* * *

- assay system: KRAS G12C (Homo sapiens, UniProt P01116, G12C)
- Sequence (P01116 1-188 isoform P01116-2 G12C): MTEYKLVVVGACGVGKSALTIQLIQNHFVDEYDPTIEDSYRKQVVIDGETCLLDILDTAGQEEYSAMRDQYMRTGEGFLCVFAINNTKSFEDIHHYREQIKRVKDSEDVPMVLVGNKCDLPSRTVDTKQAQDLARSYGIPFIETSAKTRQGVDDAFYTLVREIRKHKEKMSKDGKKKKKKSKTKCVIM
- test summary: KRAS G12C NEA-HTRF experiment (SOS1-catalyzed displacement of GDP by GTP)
measure name: IC50 (nM)

The following compounds have reported results that may help.
* C=CC(=O)N1CCN2C(=O)c3c(N4Cc5nn(C)cc5[C@@H]4C)nc(-c4c(O)cccc4F)c(Cl)c3OC[C@H]2C1 (single isomer, unassigned) [Z345-2] | 41
* C=CC(=O)N1CCN2C(=O)c3c(N4CC(N5CCN(C)CC5)CC4(C)C)nc(-c4ccccc4F)c(F)c3OC[C@H]2C1 (some centres unmarked) [Z474] | 105
* C=CC(=O)N1CCN2C(=O)c3c(N4CCN(C)C(=O)[C@@H]4C)nc(-c4c(O)cccc4F)c(Cl)c3OC[C@H]2C1 [Z311-1] | 34
* C=CC(=O)N1CCN2C(=O)c3c(N4CC[C@@H](OC)C4(C)C)nc(-c4c(O)cccc4F)c(F)c3OC[C@H]2C1 (single isomer, unassigned) [Z327-1] | 26
* C=CC(=O)N1CCN2C(=O)c3c(N4Cc5cn(C)nc5C4(C)C)nc(-c4c(O)cccc4F)c(Cl)c3OC[C@H]2C1 [Z310] | 36

P. C=CC(=O)N1CCN2C(=O)c3c(N4CCOC[C@@H]4C)nc(-c4c(O)cccc4F)c(Cl)c3OC[C@H]2C1 [Z32]
Q. C=CC(=O)N1CCN2C(=O)c3c(N4C[C@H](N5CC(F)(F)C5)CC4(C)C)nc(-c4ccccc4F)c(Cl)c3OC[C@H]2C1 (single isomer, unassigned) [Z525-1]
R. C=CC(=O)N1CCN2C(=O)c3c(N4CCN(C)C[C@@H]4C)nc(C#CC)c(Cl)c3OC[C@H]2C1 [Z459]
Q) Could you please order the items by IC50, going from the lowest number to the highest? Lab note: record answer as labels in requested order.
A) P, Q, R
(P: 142 nM, Q: 365 nM, R: 9410 nM)

a. C=CC(=O)N1CCN2C(=O)c3c(N4CCN(C)C[C@@H]4C)nc(-c4c(F)cccc4OC)c(F)c3OC[C@H]2C1 [Z451]
b. C=CC(=O)N1CCN2C(=O)c3c(N4C[C@H](N5CCN(C)CC5)CC4(C)C)nc(-c4c(O)cccc4F)c(Cl)c3OC[C@H]2C1 (single isomer, unassigned) [Z469-2]
c. C=CC(=O)N1CCN2C(=O)c3c(N4CCN(CCO)C[C@@H]4C)nc(-c4c(O)cccc4F)c(Cl)c3OC[C@H]2C1 [Z257]
d. C=CC(=O)N1CCN2C(=O)c3c(N4CCOC5CC54)nc(-c4c(O)cccc4F)c(Cl)c3OC[C@H]2C1 (some centres unmarked) [Z76]
e. C=CC(=O)N1CCN2C(=O)c3c(N4C[C@H](OC)C[C@@H]4C)nc(-c4c(O)cccc4F)c(Cl)c3OC[C@H]2C1 [Z259a]
Q) Order the records by IC50, with each subsequent value no larger than the one before. Lab note: record answer as labels in requested order.
A) a, d, c, e, b
